Measured self-cleavage kobs at 160 uM GlcN6P values are reported for all entries that follow.
B1: glmS ribozyme (parent)
chain: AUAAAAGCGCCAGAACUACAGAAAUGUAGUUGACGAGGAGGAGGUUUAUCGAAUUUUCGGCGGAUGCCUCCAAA

Variants of: B1
Experiment: self-cleavage kobs at 160 uM GlcN6P; higher = faster cleavage; RNA array
Settings: with glucosamine-6-phosphate
Fewer inactive variants are shown than the library holds.
observation-type: self-cleavage kobs at 160 uM GlcN6P (s⁻¹)

INSERT INTO assay_data (variant_description, measurement_qualifier, measurement) VALUES
  ('A39U A42C', '=', '2.58e-05'),
  ('A6U G62A', '<', '1e-05'),
  ('G7C C67U', '<', '1e-05'),
  ('C16G U45G', '=', '4.29e-05'),
  ('A12C C68A', '<', '1e-05'),
  ('A6G G9A', '<', '1e-05'),
  ('A42G A53G', '=', 0.00422),
  ('U49C G59U', '<', '1e-05'),
  ('A14G A33G', '<', '1e-05'),
  ('U65A C70U', '=', 0.00024),
  ('A12C A14U', '=', '3.61e-05'),
  ('G29U U31A U56A C67A', '=', '2.97e-05'),
  ('A36C U54A', '<', '1e-05'),
  ('C34A G40U G66A', '<', '1e-05'),
  ('U31G', '=', 0.00114),
  ('G7U G9C', '<', '1e-05'),
  ('U31A U56G', '=', 0.000532),
  ('A39C A53G', '=', 0.000404),
  ('A15G A64G', '=', 0.00196),
  ('U46A U54G', '=', 0.000213),
  ('A33C G44U', '<', '1e-05'),
  ('C8U G9C G62A U65G', '<', '1e-05'),
  ('A14G A36C', '<', '1e-05'),
  ('C8G U47G U54A G63U', '<', '1e-05'),
  ('A33C U54A', '=', '4.1e-05'),
  ('A53C U55C', '=', 0.00015),
  ('G35U A53U G60U', '<', '1e-05'),
  ('U47C U55G', '=', 0.000341),
  ('G37A G43A', '<', '1e-05'),
  ('A14C A64U', '<', '1e-05'),
  ('G13C G40C', '<', '1e-05'),
  ('C34G', '<', '1e-05'),
  ('U47A C70A', '=', '3.52e-05'),
  ('U54C U69A', '=', '6.58e-05'),
  ('C10A U55G', '<', '1e-05'),
  ('A6G A14G', '=', '7.41e-05'),
  ('U45G U55C', '=', 0.000297),
  ('A39G G62A', '<', '1e-05'),
  ('C10A A14G', '<', '1e-05'),
  ('A6G A53C U54A', '<', '1e-05'),
  ('C34U G35U A39C G63A C67U', '<', '1e-05'),
  ('C10A G43C', '<', '1e-05'),
  ('G32C C68U', '<', '1e-05'),
  ('C50G A53C C67G', '=', 0.000121),
  ('U31A G35C U54A A64U', '<', '1e-05'),
  ('G9A U30C U31C C50A', '<', '1e-05'),
  ('G9A C70A', '<', '1e-05'),
  ('C58U C68G', '=', '4.79e-05'),
  ('G7U G9A', '<', '1e-05'),
  ('U47A C71G', '=', 0.000142),
  ('U55G', '=', 0.00312),
  ('U65G C68U', '=', 0.000159),
  ('G44A C58A C70U', '<', '1e-05'),
  ('C11G A36G G40C', '<', '1e-05'),
  ('A36U U46A', '<', '1e-05'),
  ('G13A G43A', '<', '1e-05'),
  ('U30A U31C G60A C71A', '<', '1e-05'),
  ('C8A G13A G37U C67U C68U', '=', '8.8e-05'),
  ('C50A C68A', '=', '3.75e-05'),
  ('U46G C67U', '=', 0.000317),
  ('A12U A52G', '=', 0.000171),
  ('G13C C34A G35U', '<', '1e-05'),
  ('C16G U47G', '=', '7.03e-05'),
  ('G13U U49G', '<', '1e-05'),
  ('A33C A48U', '<', '1e-05'),
  ('C11A G37U', '<', '1e-05'),
  ('C11U G32U A42U', '<', '1e-05'),
  ('A14G U69A', '=', 0.000124),
  ('A14G A53G', '=', 0.00412),
  ('A64G', '=', 0.0031),
  ('G38C U57C', '<', '1e-05'),
  ('G29U C34G G38U G44U', '<', '1e-05'),
  ('A12U A39U', '=', 0.0029),
  ('G13U A14U U57C', '<', '1e-05'),
  ('C11U A15C U46A', '<', '1e-05'),
  ('C16G A48G C68A C71G', '=', '5.61e-05'),
  ('A14U G43A G63U C68U', '<', '1e-05'),
  ('G44A C67G', '=', '2.41e-05'),
  ('A14U A52G', '=', '5.44e-05'),
  ('G35U U45G U46G A64G', '<', '1e-05'),
  ('C70U', '=', 0.00417),
  ('G62C U65C', '<', '1e-05'),
  ('C11G A12G', '<', '1e-05'),
  ('A14U A53U C71U', '=', 0.00021),
  ('U55C C70U', '=', '7.16e-05'),
  ('A6G G9U G13C C34A', '<', '1e-05'),
  ('U30G G43U', '<', '1e-05'),
  ('G13A U45C C50U C71G', '<', '1e-05'),
  ('C70A C71U', '=', '2.83e-05'),
  ('U57G G62C A64U', '<', '1e-05'),
  ('A39C A42G', '=', 0.000376);
